# TEST METHOD NOTES: Exposure and tissue distribution after 14 days repeat dosing, rat
# Format: in vivo
# DETAILS: Wistar, rat, brain, sc; Female rats, 5 mg/kg s.c. 14 days, 2 h post last dose; read-out: Brain concentration
MEASUREMENT NAME: concentration at 2 h (ng/g)
The figure you give is taken to be in ng/g; do not add the unit.

What concentration at 2 h value was documented for this molecule, O=c1ccc2ccc(O[C@@H]3C[C@H]4CC[C@@H](C3)N4)cc2o1 ?
468

###

# TEST METHOD NOTES: Exposure and tissue distribution after 14 days repeat dosing, rat
# Format: in vivo
# DETAILS: Wistar, rat, brain/plasma, sc; Male rats, 10 mg/kg s.c. 14 days, 2 h post last dose; read-out: Brain/plasma ratio
MEASUREMENT NAME: Kp at 2 h
// keep it numeric: no unit symbol after the value

What Kp at 2 h value was documented for this compound, O=c1ccc2ccc(O[C@@H]3C[C@H]4CC[C@@H](C3)N4)cc2o1 [Compound (I)] ?
6

Cited source for all entries: patent US20220288052A1
